Test system: DLD-1 colon
Experiment: NCI tumour cell line growth inhibition, 48 h
measured.property: TGI

>>> observed_measurement("CCC1=C(C(C)=O)[C@@H]2CCCCC(C(=O)OC)[C@@H]2C1=O (stereo not given in full)")
"> 100 µM"

Lab note: need TGI with DLD-1 colon for entry CSc1nc(NC2OC(COC(C)=O)C(OC(C)=O)C(OC(C)=O)C2OC(C)=O)c(N=CC=Nc2c(NC3OC(COC(C)=O)C(OC(C)=O)C(OC(C)=O)C3OC(C)=O)nc(SC)[nH]c2=O)c(=O)[nH]1 (stereo not given) , please look it up. > 100 µM

Lab note: need TGI with DLD-1 colon for entry COC(=O)C1[C@@H](C(=O)OC)C(=O)O[C@H]1c1cc(OC)c(OC)c(OC)c1 (stereo not given in full) , please look it up. > 100 µM

Lab note: need TGI with DLD-1 colon for entry CSC1N=CNc2c1sc(=S)n2-c1ccccc1 (stereo not given) , please look it up. > 100 µM

Lab note: need TGI with DLD-1 colon for entry CSc1cc(-c2cc3ccccc3o2)oc(=O)c1C#N , please look it up. > 100 µM

Lab note: need TGI with DLD-1 colon for entry COC(=O)C1=C(C=O)C2C=CC1C2 (stereo not given) , please look it up. 78.5 µM

---

Test system: HCT-15 colon
Test: NCI tumour cell line growth inhibition, 48 h
measured.property: GI50

Worked cases, answers included:
>>> observed_measurement("CC(C)N(CCCNC(=O)Nc1ccc(C(C)(C)C)cc1)C[C@H]1O[C@@H](n2ccc3c(N)ncnc32)[C@H](O)[C@@H]1O")
"> 100 µM"
>>> observed_measurement("Cn1cc(-c2csc(-c3c[nH]c4ccccc34)n2)c2cnccc21")
"1.79 µM"
>>> observed_measurement("CCCN1C/C(=C\\c2ccc(O)c(OC)c2)C(=O)/C(=C/c2ccc(O)c(OC)c2)C1")
"> 100 µM"

Alright, here's another molecule for you.
Lab note: need GI50 with HCT-15 colon for entry CC(=O)N1CCC(Nc2ncc3cc(Oc4ccc(F)cc4F)c(=O)n(C)c3n2)CC1 , please look it up. > 25 µM

---

Collected TGI values appear next to each entry.
Test system: A549 NSCLC
Assay: NCI tumour cell line growth inhibition, 48 h

>>> observed_measurement("Nc1nc2cc(O)ccc2n2cc3c(F)cccc3c12")
"> 100 µM"
>>> observed_measurement("CC1(C)CC[C@]2(C(=O)Nc3ccccn3)CC[C@]3(C)C(=CC[C@@H]4[C@@]5(C)C/C(=C/c6ccncc6)C(=O)C(C)(C)[C@@H]5CC[C@]43C)[C@@H]2C1")
"> 100 µM"
>>> observed_measurement("O=C1C(C=NC(=S)c2ccccc2)=C(O)c2ccccc21")
"> 100 µM"
>>> observed_measurement("CCN(CC)CC(O)CNc1c2ccc(Cl)cc2nc2ccc(OC)cc12 (stereo not given)")
"2.03 µM"
>>> observed_measurement("COc1cc2c3c(n(CCCNC4=NCCS4)c(=O)c2cc1OC)-c1cc2c(cc1C3=O)OCO2")
"1.33 µM"
>>> observed_measurement("CC(=O)OC1C[C@@H](C)C2(CC(c3ccoc3)OC2=O)C2CCC(O)C3(CO3)C12CO (stereo not given in full)")
"> 100 µM"

Looking for the measured TGI of Nc1c(C(=O)Nc2cccc(C(F)(F)F)c2)sc2nc3c(cc12)C(O)CCC3 (stereo not given) , can you help? > 79.4 µM

Looking for the measured TGI of OC(COc1cccc2ccccc12)CN1CCOCC1 (stereo not given) , can you help? > 100 µM

Looking for the measured TGI of CC(=O)c1c(Nc2cccc(F)c2)[nH]c2c(Cl)cc(Cl)c(Cl)c2c1=O , can you help? > 100 µM

Looking for the measured TGI of CC(C)(C)OC(=O)NC(CSCc1ccc(C(=O)c2ccccc2)cc1)C(=O)O (stereo not given) , can you help? > 100 µM

Looking for the measured TGI of N#CNCC(COCc1ccccc1)c1ccccc1 (stereo not given) , can you help? > 100 µM
